biological target: T1, His-tagged human Bcl-xL (human, UniProt Q07817 1-212); assay: fluorescence polarization competition against fl-Bak, Kd by regression analysis
T1 construct: Bought protein; also called Hiss-tagged human Bcl-xL; not shown: His tag
T1 sequence (Q07817 1-212): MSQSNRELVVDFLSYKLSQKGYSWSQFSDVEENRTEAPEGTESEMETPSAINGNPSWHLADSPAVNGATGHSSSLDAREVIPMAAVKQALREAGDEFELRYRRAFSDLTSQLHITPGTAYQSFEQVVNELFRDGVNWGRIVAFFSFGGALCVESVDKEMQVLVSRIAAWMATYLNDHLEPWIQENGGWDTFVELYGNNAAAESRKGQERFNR
REPORTED METRIC: pKd
Recall that pKd is obtained by taking minus log10 of the concentration measured in molar.

# input Give the measured pKd for QVGRQLAIIGDDINR (not fully specified; N-terminal Gly-72 replaced by a 4-pentenoic acid residue (alkene-bearing glycine mimic); Gly-75 is N-allyl-glycine; the two olefins are joined by ring-closing metathesis (carbon-carbon hydrogen bond surrogate, mixture of cis and trans alkene isomers); C-terminal amide) [artificial Bak BH3 α-helix 10a (hydrogen bond surrogate, HBS)]
# output 6.49
